Record form. Attribute: inhibition in vivo at 0.4 mg/kg. Fill in for each entry.
Tested on: E coli B44 (09:K90:K99)
assayInfo: Protection of Neonatal Mice from Lethal Enteropathogenic E coli Infection
Assay type: in vivo
testSettings: Mus musculus, intraduodenal, 240 h; Table 1; 0.4 mg/kg (dose of hydrochloride salt) b.i.d. for four days commencing 16 hours after infection; 4 day old mice; % reduction in mortality vs placebo, 10 days
// return the numeric value with its unit appended

Hi, could you look up inhibition in vivo at 0.4 mg/kg for each item in my list?
1. CNC(=S)Nc1cc(Cl)c(N=C2NCCN2)c(Cl)c1
2. CNC(=S)Nc1cc(C)c(N=C2NCCN2)c(C)c1
3. CN=C(Nc1cc(Cl)c(N=C2NCCN2)c(Cl)c1)SC
4. S=C(NCc1ccccc1)Nc1cc(Cl)c(N=C2NCCN2)c(Cl)c1

6%
43%
26%
21%
